Recorded concentration at 3 h for the following molecules
# Test method notes: Drug concentration in fasted Zucker fa/fa rat plasma at 30 mg/kg, po after 3 hrs
# Type: ADME, organism-based
# Design: dose 30 mg/kg, route oral

INSERT INTO measurements (molecule, observation_type, observed_value) VALUES
  ('O=C(NN1CCOCC1)C1=NN(c2ccc(Cl)cc2Cl)C(c2ccc(Cl)cc2)C1.O=S(=O)(O)O (single isomer, unassigned; 30)', 'concentration at 3 h', '1400 ng/mL');

Now turn to the next molecule.
Prompt: Fill in concentration at 3 h for record Cc1c(C(=O)NN2CCCCC2)nn(-c2ccc(Cl)cc2Cl)c1-c1ccc(Cl)cc1 [RIMONABANT]
Response: 400 ng/mL

* * *

# Experimental system: Cannabinoid receptor 1 (Homo sapiens, UniProt P21554)
# Sequence (P21554 whole entry): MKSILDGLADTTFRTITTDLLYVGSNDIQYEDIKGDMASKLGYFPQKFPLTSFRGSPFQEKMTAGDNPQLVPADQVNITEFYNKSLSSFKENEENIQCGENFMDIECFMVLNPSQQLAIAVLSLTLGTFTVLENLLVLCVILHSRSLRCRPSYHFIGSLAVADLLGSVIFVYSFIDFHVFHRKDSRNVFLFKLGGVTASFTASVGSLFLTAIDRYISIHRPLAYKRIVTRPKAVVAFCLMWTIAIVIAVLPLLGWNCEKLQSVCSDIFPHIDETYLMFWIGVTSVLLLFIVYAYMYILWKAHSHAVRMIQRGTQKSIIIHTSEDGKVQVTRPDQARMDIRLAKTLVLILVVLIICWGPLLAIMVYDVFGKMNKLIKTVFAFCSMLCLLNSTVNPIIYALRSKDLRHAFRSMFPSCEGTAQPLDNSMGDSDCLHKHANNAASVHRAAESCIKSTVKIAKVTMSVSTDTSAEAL
Observation type: pKi
The quantity pKi is defined as the negative base-10 logarithm of the molar concentration.

Prompt: Fill in pKi for record O=C(NN1CCOCC1)C1=NN(c2ccc(Cl)cc2Cl)C(c2ccc(Cl)cc2)C1.O=S(=O)(O)O (single isomer, unassigned; 30)
Response: 6.82

* * *

# Test method notes: Drug concentration in fasted Zucker fa/fa rat brain at 30 mg/kg, po after 3 hrs
# Type: ADME, organism-based
# Parameters: dose 30 mg/kg, route oral
# Assay conditions: read-out: Drug uptake
Recorded concentration at 3 h for the following molecules
Entry rule: numbers only, all in ng/g.

INSERT INTO measurements (molecule, observation_type, observed_value) VALUES
  ('O=C(NN1CCOCC1)C1=NN(c2ccc(Cl)cc2Cl)C(c2ccc(Cl)cc2)C1.O=S(=O)(O)O (single isomer, unassigned; 30)', 'concentration at 3 h', 4860);

Prompt: Fill in concentration at 3 h for record Cc1c(C(=O)NN2CCCCC2)nn(-c2ccc(Cl)cc2Cl)c1-c1ccc(Cl)cc1
Response: 450

* * *

Recorded half-life for the following molecules
# Test method notes: Half life in fasted Zucker fa/fa rat at 30 mg/kg, po
# Assay type: ADME, organism-based
# Set-up: dose 30 mg/kg, route oral
# Assay conditions: in vivo
Entry rule: numbers only, all in h.

INSERT INTO measurements (molecule, quantity_unit, observed_value) VALUES
  ('Cc1c(C(=O)NN2CCCCC2)nn(-c2ccc(Cl)cc2Cl)c1-c1ccc(Cl)cc1 [RIMONABANT]', 'h', 26.6);

Prompt: Fill in half-life for record O=C(NN1CCOCC1)C1=NN(c2ccc(Cl)cc2Cl)C(c2ccc(Cl)cc2)C1.O=S(=O)(O)O (single isomer, unassigned; 30)
Response: 17.6

* * *

# Test method notes: Tmax in fasted Zucker fa/fa rat at 30 mg/kg, po
# Type: ADME, organism-based
# Design: dose 30 mg/kg, route oral
# Assay conditions: in vivo
Observation type: Tmax (h)
Entry rule: numbers only, all in h.

INSERT INTO assay_data (molecule, quantity_unit, observed_value) VALUES
  ('O=C(NN1CCOCC1)C1=NN(c2ccc(Cl)cc2Cl)C(c2ccc(Cl)cc2)C1.O=S(=O)(O)O (single isomer, unassigned; 30)', 'h', 3.7);

Now turn to the next molecule.
Prompt: Fill in Tmax for record Cc1c(C(=O)NN2CCCCC2)nn(-c2ccc(Cl)cc2Cl)c1-c1ccc(Cl)cc1
Response: 2.6

* * *

Recorded Inhibition for the following compounds
# Test system: Rattus norvegicus
# Test method notes: Inhibition of sucrose intake in Zucker fa/fa rat at 10 mg/kg, po after 4 hrs
# Type: functional
Entry rule: numbers only, all in %.

INSERT INTO results (compound, quantity_unit, observed_value) VALUES
  ('O=C(NN1CCOCC1)C1=NN(c2ccc(Cl)cc2Cl)C(c2ccc(Cl)cc2)C1.O=C(O)C(=O)O (centres undefined)', '%', 20.4);

Prompt: Fill in Inhibition for record O=C(NN1CCOCC1)C1=NN(c2ccc(Cl)cc2Cl)C(c2ccc(Cl)cc2)C1 (centres undefined)
Response: 34.2

Prompt: Fill in Inhibition for record CS(=O)(=O)O.O=C(NN1CCOCC1)C1=NN(c2ccc(Cl)cc2Cl)C(c2ccc(Cl)cc2)C1 (centres undefined)
Response: 19.2

Prompt: Fill in Inhibition for record O=C(NN1CCOCC1)C1=NN(c2ccc(Cl)cc2Cl)C(c2ccc(Cl)cc2)C1.O=S(=O)(O)c1ccccc1 (single isomer, unassigned; 33)
Response: 17.1
